- Tested on: HEK-293T
- ASSAY OVERVIEW: Multiplex assay against HEK293T
- Assay type: toxicity, cell-based
- SETTINGS: human, 24 h, 10 µM, compound concentration 10 uM, replicate 2
As shown below, each of these molecules has a reported Population Membrane Permeable-Phenotype (%) value.
A number alone suffices; assume %.

INSERT INTO results (molecule, unit_of_measurement, observed_measurement) VALUES
  ('COc1cc(N2CCN(C)CC2)ccc1Nc1ncc2c(n1)N(C)c1ccccc1C(=O)N2C', '%', 2),
  ('CCCn1c(=O)c2[nH]c(-c3cnn(Cc4cccc(C(F)(F)F)c4)c3)nc2n(CC)c1=O', '%', 8),
  ('Cl.O=C(c1ccc(Nc2nccc(-c3cc4ccccc4s3)n2)cc1)N1CCC(N2CCCC2)CC1', '%', 9),
  ('O=C1NC(=O)C(c2cnc3ccccn23)=C1c1cn2c3c(cc(F)cc13)CN(C(=O)N1CCCCC1)CC2', '%', 2),
  ('Cc1ccc2nc(NCCN)c3ncc(C)n3c2c1.O=C(O)C(F)(F)F.O=C(O)C(F)(F)F', '%', 1);

Given the molecule COc1cc2ncnc(Nc3ccc(F)c(Cl)c3)c2cc1NC(=O)/C=C/CN1CCCCC1 [DACOMITINIB ANHYDROUS] , what is its reported Population Membrane Permeable-Phenotype (%)?
4

Also check Cl.O=c1c2cccn2c2ccccc2n1CCCN1CCC(c2ccc(Cl)cc2)CC1
3

Also check C=C1/C(=C\C=C2/CCC[C@]3(C)[C@@H]([C@H](C)/C=C/[C@H](C)C(C)C)CC[C@@H]23)C[C@@H](O)C[C@@H]1O
10

---

- Test system: HEK-293T
- ASSAY OVERVIEW: Multiplex assay against HEK293T
- Format: toxicity, cell-based
- SETTINGS: human, 24 h, 1 µM, compound concentration 1 uM, replicate 1
ATTRIBUTE MEASURED: Population Membrane Permeable-Phenotype (%)
// return the numeric value with its unit appended

INSERT INTO measurements (molecule, tested_system, observed_measurement) VALUES
  ('CCCS(=O)(=O)c1nc(NC2CC2)cc(-c2ccc3c(ccn3C3CC(C)(C)NC(C)(C)C3)c2)n1', 'HEK-293T', '2%'),
  ('COc1cccc2cc(-c3nc([C@H]4CC[C@H](C(=O)O)CC4)n4ncnc(N)c34)[nH]c12', 'HEK-293T', '15%'),
  ('O=C(Nc1ccc(-c2ccnc(Nc3ccc(N4CCOCC4)cc3)n2)cc1)[C@@H]1CCCN1', 'HEK-293T', '1%'),
  ('Cn1nc(C(F)(F)F)cc1-c1cnc(N2CCc3cc(S(=O)(=O)Nc4c(F)cc(Cl)cc4F)cc(N4CCCC4=O)c32)nc1', 'HEK-293T', '12%'),
  ('CNC(=O)c1ccc(Nc2nc(OC3CCCC3)c3c(-c4ccc5nc(C)oc5c4)c[nH]c3n2)c(OC)c1', 'HEK-293T', '10%');

Entry O=C1NC(=O)C(c2cnc3ccccn23)=C1c1cn2c3c(cc(F)cc13)CN(C(=O)N1CCCCC1)CC2 , system HEK-293T: what Population Membrane Permeable-Phenotype (%) was measured?
6%

Also check CCOC(=O)c1c(C)[nH]c2ccc3c(c12)CN1CCc2cc(OC)ccc2C1O3 (configuration not stated)
0%

Also check CCCn1c(=O)c2[nH]c(-c3cnn(Cc4cccc(C(F)(F)F)c4)c3)nc2n(CC)c1=O
0%

Also check Cl.O=c1c2cccn2c2ccccc2n1CCCN1CCC(c2ccc(Cl)cc2)CC1
1%

Also check CCOc1cc2ncc(C#N)c(Nc3ccc(OCc4ccccn4)c(Cl)c3)c2cc1NC(=O)/C=C/CN(C)C
2%

Also check COc1ccc(-c2ccc3c(N4CCOCC4)nc(N4C[C@@H](C)O[C@@H](C)C4)nc3n2)cc1CO
8%

Also check Cc1ccc(C(=O)Nc2cccc(C(F)(F)F)c2)cc1Nc1nc(-c2cccnc2)nc2c1cnn2C
2%

Also check CN1CCC(=C2c3ccccc3CC(=O)c3sccc32)CC1.O=C(O)/C=C/C(=O)O [KETOTIFEN FUMARATE]
7%

Also check CN([C@@H](Cc1ccc(OS(=O)(=O)c2cccc3cnccc23)cc1)C(=O)N1CCN(c2ccccc2)CC1)S(=O)(=O)c1cccc2cnccc12
20%

Also check O=C(Cc1ccc(-c2ccc(OCCN3CCOCC3)cc2)cn1)NCc1ccccc1
2%
